# protocol.text: reversal of MRP1-mediated doxorubicin resistance, pilot screen, H69AR cells, doxorubicin co-treatment (AID 601)
# experimental.setup: H69AR cells + 2 uM doxorubicin, CellTiter-Glo, 72 h; at 10 µM; stronger effect = higher value
differential viability (reversal) for assorted compounds

compound	unit	differential viability (reversal)
COc1cccc(C(=O)Nc2cc(NC(=O)c3ccco3)ccc2OC)c1	%	2.75
O=C(Nc1cccc2c1CCCC2)C1CCN(c2nnnn2-c2ccccc2)CC1	%	5.29
CCOC(=O)c1cnc(-n2nc(C)cc2C)nc1NC(C)c1ccccc1 (stereo not given)	%	-1.17
CC(C)CC1NC(=O)N(CC(=O)N2CCN(S(=O)(=O)c3ccc(Cl)cc3)CC2)C1=O (stereo not given)	%	-19.2
COc1ccc(-c2nc3cc(NC(=O)Cc4ccc(OC)c(OC)c4)ccc3o2)cc1	%	3.68

---

# protocol.text: reversal of MRP1-mediated doxorubicin resistance, pilot screen, H69AR cells, doxorubicin co-treatment (AID 601)
# experimental.setup: H69AR cells + 2 uM doxorubicin, CellTiter-Glo, 72 h; measured here: viability with 2 uM doxorubicin; at 10 µM; stronger effect = lower value
Entries and their viability values follow.

molecule	unit	viability
O=C1COc2ccc(C(=O)COC(=O)CCc3ccc(S(=O)(=O)N4CCOCC4)cc3)cc2N1	%	89.4
COC(=O)C1=C(C)N(Cc2ccco2)C(=O)C1	%	90.7
Cc1cc(C)cc(C(=O)N2CCC(C(N)=O)CC2)c1	%	87.5
CC(=O)NC1(C(F)(F)F)NC(=O)N(CC(C)C)C1=O (stereo unspecified)	%	83.6
Cc1ccc2nc(C(F)(F)F)c(C#N)c(N)c2c1	%	115
CS(=O)(=O)N(CC(=O)NCCSCc1cccc(Cl)c1)c1ccc2c(c1)OCO2	%	97.8
O=C(COc1ccccc1Cl)N1CCCC1	%	92.3
c1ccc2c(SCc3cn4cccnc4n3)ncnc2c1	%	78
CC(C)CCNC(=O)NC(=O)CSc1nnc(-c2ccccc2F)n1N	%	91.9
COc1ccc(-c2nnc(SCC(=O)Nc3cc(C)on3)n2C)cc1OC	%	92.6
CC1(C)CC(=O)C(C=NC(CCC(N)=O)C(=O)O)=C(O)C1 (stereo unspecified)	%	83.3

---

# protocol.text: 384-well plate pilot, post-Golgi transport modulator project, inhibition of yeast transport mutant growth (AID 636)
# experimental.setup: absorbance 615 nm, about 18 h, stronger effect = higher value
Listed next: entries and their corresponding inhibition.

compound	inhibition [%]
Cc1nc2ccccc2c(=O)n1NC(=O)Nc1ccccc1	-1.2
Cn1c(Cc2cccs2)nnc1SCC(=O)N1CCc2ccccc21	-0.66
NC(=O)CSCc1ccc(Br)cc1	-4.67
CCN1C(=O)C2(C(C#N)=C(N)Oc3n[nH]c(C(C)C)c32)c2ccccc21 (centres undefined)	-8.9
Cc1nc2ccccc2c(=O)n1NC(=O)c1c(O)c2c(n(CC(C)C)c1=O)CCCC2	-1.84
C=CCn1c(COc2cccc(C)c2)nnc1SCC(=O)NC(=O)NCc1ccco1	-5.07
CCCCc1nc(NCCN2CCOCC2)c(C#N)c2c1COC(C)(C)C2	5.48
COc1ccc(C(=O)N2CCN(C(=O)c3ccco3)CC2)cc1OC	-5.73
O=S(=O)(Cc1ccccc1)N1CCN(Cc2ccccc2)CC1	-0.13
CC(C)CC(OC(=O)c1cccs1)C(=O)NCc1ccco1 (centres undefined)	-7.6
O=C(c1ncn[nH]1)N1CCN(c2nc(-c3ccccc3)cs2)CC1	-1.73
Cc1ccc(CN2CCN(C(=O)C3CCC3)CC2)cc1	-8.49
NS(=O)(=O)c1ccc(CCNC(=O)c2cccnc2)cc1	-4.46
CC(C)(Oc1ccc(CCNC(=O)c2ccc(Cl)cc2)cc1)C(=O)O	-4.29
CCC(=O)c1ccc(O)cc1	-0.13
O=C(Nc1ncc2c(n1)CC(c1ccccc1)CC2=O)c1ccco1 (centres undefined)	-5.21
CN1CC=C2C(C#N)=C(N)C(C#N)(C#N)[C@H](c3cccc(Cl)c3)C2C1 (some centres undefined)	-4.27
Cc1ccc2c(C)nc(Nc3nc(CSc4nnnn4-c4ccccc4)cc(=O)[nH]3)nc2c1	-5.47
Cc1nc(C)c(C(=O)Nc2ccc(Oc3ccccc3)cc2)o1	-6.35
O=c1ccn(Cc2ccccc2Cl)cc1	-4.47
O=C(O)c1ccc2noc(-c3ccccc3)c2c1	-4.74
C=CCOC(=O)C1=C(C)NC(=O)NC1c1cn(-c2ccccc2)nc1-c1cccs1 (centres undefined)	-6.49
O=C(O)c1ccc(COc2ccc(Cl)cc2)o1	-0.26
CCOC(=O)c1ccc(N(CC(=O)NC2CCCC2)C(=O)CNC(=O)c2ccco2)cc1	0.13

---

# protocol.text: growth suppression of yeast trafficking mutant, preliminary HTS, modulators of trafficking downstream of Golgi apparatus project, 1536-format plate, OD 615 nm (AID 637)
# experimental.setup: yeast transport mutant growth, absorbance 615 nm, 18 h; stronger effect = higher value
property: inhibition (%)

compound	property	observed
COc1nc(NCCc2ccc(OC)c(OC)c2)nc(NC(C)(C)CO)n1	inhibition	-1.31
CCC(C)NC(=O)CCNS(=O)(=O)c1ccc(Br)cc1 (stereo unspecified)	inhibition	-1.67
CC1(C)CC(=O)c2cnc(NC(=O)CSc3nc4ccccc4o3)nc2C1	inhibition	0.83
N#CCC(=O)N1CCn2c1nc1ccccc12	inhibition	0.33
NS(=O)(=O)c1ccc(NC(=O)N[C@@H](Cc2ccccc2)C(=O)O)cc1	inhibition	4.52
CC(OC(=O)CNC(=O)C12CC3CC(CC(C3)C1)C2)C(=O)Nc1ccc(N2CCOCC2)cc1 (stereo unspecified)	inhibition	-2.55
Cc1ccc(CCSCC(=O)O)cn1	inhibition	0.16
CCOC(=O)C1=C(N)OC2=C(C(=O)CC(C)(C)C2)C1c1ccco1 (stereo unspecified)	inhibition	3.28
Cc1ccc(F)cc1NC(=O)C1CCCN(c2ncccn2)C1 (stereo unspecified)	inhibition	-2.91
CCOCCCNC(=O)C1CC(=O)N(C2CCCC2)C1 (stereo unspecified)	inhibition	1.15
CCOc1ccc(NC(=O)CC2NCCNC2=O)cc1 (stereo unspecified)	inhibition	-2.36

---

# protocol.text: growth suppression of yeast trafficking mutant, preliminary HTS, modulators of trafficking downstream of Golgi apparatus project, 1536-format plate, OD 615 nm (AID 637)
# experimental.setup: yeast transport mutant growth, absorbance 615 nm, 18 h
Active and inactive are the calls of the source. Cut-off read from the data, not from the text of the source: active = inhibition above about 30%; inactive = the rest.
Labels: active, inactive

molecule	qualitative.label
Cn1c(=N)c(S(=O)(=O)c2ccccc2)cc2c(=O)n3ccccc3nc21	active
COc1ccc(-c2nnnn2C)cc1S(=O)(=O)NCc1ccccc1	inactive
CC(=O)Oc1cccc2c1C(=O)c1c(OC(C)=O)cc(C(=O)O)cc1C2=O	inactive
NS(=O)(=O)c1cc2c(cc1Cl)NCNS2(=O)=O	inactive
CCCCCc1nnc(NC(=O)Cc2cccs2)s1	inactive
O=C(CN1C(=O)CCS(=O)(=O)c2ccccc21)NCc1ccc(F)cc1	inactive
Cc1cc(C)n(CC(=O)O)n1	inactive
O=C(Nc1ccccc1)N(CCCN1CCOCC1)Cc1cc2cc3c(cc2[nH]c1=O)OCCO3	inactive
COCCn1nnnc1C(c1cc2ccc(OC)cc2[nH]c1=O)N1CCc2ccccc2C1 (configuration not stated)	inactive
Cc1ccc(-c2nc3cc(N)ccc3o2)cc1	inactive
COc1ccccc1NC(=O)NC(N)=O	inactive
Cn1c(=O)cc(OCC(=O)NCCCN2CCN(Cc3ccccc3)CC2)c2ccccc21	inactive
COc1ccc(-c2[nH]nc3c2C(c2ccncc2)C(C#N)=C(N)O3)cc1 (configuration not stated)	inactive
Cc1ccc(-c2nnc(SCC(=O)N3CC(C)CC(C)C3)o2)cc1C (configuration not stated)	inactive
CCn1c(SCC(=O)NC)nnc1C(C)C	inactive
CCn1c(SCC(=O)Nc2ccc3c(c2)OCO3)nc2c(c1=O)SC(C)C2 (configuration not stated)	inactive
CS(=O)(=O)NCc1nnc(SCC(=O)NC2CCCCC2)n1-c1ccc(F)cc1	inactive
COc1ccccc1C(=O)Nc1ccccc1C(=O)N1CCCC1	inactive
Nc1nonc1-c1noc(-c2ccccc2Br)n1	inactive
c1cncc(C2Nc3ccccc3-c3nc4ccccc4n32)c1 (configuration not stated)	inactive
O=S(=O)(Nc1nc2ccccc2nc1NCc1ccco1)c1cccs1	inactive
O=C(CC(=O)c1cc(Cl)ccc1O)c1ccccc1	active
O=C(O)c1cccn2c(=O)c3ccccc3nc12	inactive
Cc1c(C#N)c(N)c(C(=O)c2ccccc2)n1Cc1ccccc1	inactive
CCSC(SCC)[C@H](O)[C@@H](O)[C@H](O)[C@H](O)CO	inactive
CC(C)OC(=O)CSc1nnnn1-c1ccc2c(c1)OCCO2	inactive
CN(CC(=O)N1CCN(c2ccccn2)CC1)S(=O)(=O)c1ccc2ccccc2c1	inactive
Clc1ccc2c(c1)C(N1CCNCC1)=Nc1ccccc1O2	inactive
O=C(Cn1c(=O)n(CC2CCCO2)c(=O)c2ccccc21)c1ccccc1 (configuration not stated)	inactive
Cc1ccc(Nc2nc(N)nc(CN3CCN(Cc4ccc5c(c4)OCO5)CC3)n2)cc1	inactive
COc1cccc(C(=O)Nc2ccc(NC(C)=O)cn2)c1	inactive
COc1ccc(/C=C/C(=O)Nc2ccccc2C(=O)O)cc1OC	inactive
CC(=O)Nc1c(I)c(NC(C)=O)c(I)c(C(=O)O)c1I	inactive
COc1cc2c(cc1OC)CN(CC(=O)Nc1cccc(C)c1)CC2	inactive
O=C(O)c1ccc2c3c(ncnc13)-c1ccccc1C2=O	inactive
Cc1ccc(Nc2nnns2)cc1C	inactive
CCOc1ccc(NC(=O)COC(=O)Cn2cnnn2)cc1OCC	inactive
N[C@@H](C(=O)N[C@@H]1C(=O)N2C(C(=O)O)=C(Cl)CS[C@H]12)c1ccccc1	inactive
CC1(C)CC(=O)C(C=NC(CCC(N)=O)C(=O)O)=C(O)C1 (configuration not stated)	inactive
CC(C)CN(CC(C)C)c1nc(N)c(C#N)c(CC#N)c1C#N	inactive
CCOC(=O)Cc1csc(NC(=O)CSc2nnc(C(C)C)n2CC)n1	inactive
O=C(NCCc1ccccc1)C1CCCN(S(=O)(=O)c2cccs2)C1 (configuration not stated)	inactive
CC(C(=O)NC(=O)NC1CCCCC1)N1CCN(c2ccccn2)CC1 (configuration not stated)	inactive
COC(=O)CSc1nnc(-c2cccs2)n1-c1ccc(Cl)cc1	inactive
Cc1ccccc1Nc1cc2ccccc2c(=O)[nH]1	inactive
CCN(CC(=O)NC1CCS(=O)(=O)C1)C(=O)C(c1ccccc1)c1ccccc1 (configuration not stated)	inactive
O=C(NCc1cccnc1)c1ccc(Cl)c(Cl)c1	inactive
